test: Determination of toxicity, intravenous, mice; conditions: mouse, in vivo, i.v., female NMRI mice, 7 days observation, read-out: Toxicity LD50 administered intravenously to mice
A collection of molecules and their measured LD50 at 168 h

Molecule | LD50 at 168 h, mg/kg
CN1CCN(CC(=O)N2c3ccccc3N(C)C(=O)c3cnc(-c4ccccc4)nc32)CC1 [Compound 3] | 95
CN1CCN(CC(=O)N2c3ccccc3NC(=O)c3cncnc32)CC1 [Compound 2] | 180
CC1(C)[C@@H](OC(=O)CCC(=O)O)CC[C@]2(C)[C@H]3C(=O)C=C4[C@@H]5C[C@@](C)(C(=O)O)CC[C@]5(C)CC[C@@]4(C)[C@]3(C)CC[C@@H]12 [Compound 1, Carbenoxolone, reference compound] | 290
CN1C(=O)c2cnc(-c3ccccc3)nc2N(C(=O)CN2CCCCC2)c2ccccc21 [Compound 4] | 160

* * *

A collection of compounds and their measured TQ LD50/ED50 (therapeutic quotient)
system: Shay rats; assay: Antiulcerogenic action (protective action on the stomach) in Shay rats, pylorus ligature plus acetylsalicylic acid; assay type: in vivo, rat; conditions: LD50 i.v. mice / ED50 p.o. rats

Record smiles | Target or test system | TQ LD50/ED50 (therapeutic quotient)
CN1CCN(CC(=O)N2c3ccccc3NC(=O)c3cncnc32)CC1 | Shay rats | 15
CN1CCN(CC(=O)N2c3ccccc3N(C)C(=O)c3cnc(-c4ccccc4)nc32)CC1 | Shay rats | 10.5
